These entries and their values trace back to patent US20200354457A1.

- Measurement Target: T1, recombinant human LAG3 Fc Chimera Protein (R&D Systems, 2319-L3) (human, UniProt P18627 23-450)
- T1 construct: Bought reagent
- T1 sequence (looked up): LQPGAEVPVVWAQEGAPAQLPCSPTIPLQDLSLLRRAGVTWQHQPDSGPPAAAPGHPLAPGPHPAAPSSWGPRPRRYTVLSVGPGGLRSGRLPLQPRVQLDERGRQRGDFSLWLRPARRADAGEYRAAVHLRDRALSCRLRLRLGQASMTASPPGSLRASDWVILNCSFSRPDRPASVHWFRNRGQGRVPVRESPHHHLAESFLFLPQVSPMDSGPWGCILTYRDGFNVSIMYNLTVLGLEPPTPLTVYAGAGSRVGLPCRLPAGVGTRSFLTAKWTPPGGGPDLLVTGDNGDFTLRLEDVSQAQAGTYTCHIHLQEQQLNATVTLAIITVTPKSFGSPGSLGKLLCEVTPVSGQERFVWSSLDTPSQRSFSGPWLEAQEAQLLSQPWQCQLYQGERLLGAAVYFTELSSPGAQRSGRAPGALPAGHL
- Experiment Notes: SPR (Biacore), aVH-Fc captured by anti-human Fc, human LAG-3 Fc chimera as analyte, 25 C
t1/2 listing for selected binders.
Note: unit h is implicit; provide only the numeric part.

Observe how each entry below is paired with its result.
binder="bivalent P11E2 aVH-Fc (Fc fusion) EVQLVESGGGLVQPGGSLRLSCAASGFNIKDTCIGWVRRAPGKGTELVAEICDDIGYTRYADSVKGRFTISADTSKNTAYLQMNSLRAEDTAVYYCASQEHQWSFKYWGQGTTVTVSSGGGGSGGGGSDKTHTCPPCPAPEAAGGPSVFLFPPKPKDTLMISRTPEVTCVVVDVSHEDPEVKFNWYVDGVEVHNAKTKPREEQYNSTYRVVSVLTVLHQDWLNGKEYKCKVSNKALGAPIEKTISKAKGQPREPQVYTLPPSRDELTKNQVSLTCLVKGFYPSDIAVEWESNGQPENNYKTTPPVLDSDGSFFLYSKLTVDKSRWQQGNVFSCSVMHEALHNHYTQKSLSLSPGK" recorded_metric=t1/2 experimental_result=2.83
binder="bivalent P10D1 aVH-Fc (Fc fusion) EVQLVESGGGLVQPGGSLRLSCAASGFSIKDTCIAWVRRAPGKGTELVAEICEDIGYTRYADSVKGRFTISADTSKNTAYLQMNSLRAEDTAVYYCAAKEAGVGFDYWGQGTTVTVSSGGGGSGGGGSDKTHTCPPCPAPEAAGGPSVFLFPPKPKDTLMISRTPEVTCVVVDVSHEDPEVKFNWYVDGVEVHNAKTKPREEQYNSTYRVVSVLTVLHQDWLNGKEYKCKVSNKALGAPIEKTISKAKGQPREPQVYTLPPSRDELTKNQVSLTCLVKGFYPSDIAVEWESNGQPENNYKTTPPVLDSDGSFFLYSKLTVDKSRWQQGNVFSCSVMHEALHNHYTQKSLSLSPGK" recorded_metric=t1/2 experimental_result=1.7
binder="bivalent P10C3 aVH-Fc (Fc fusion) EVQLVESGGGLVQPGGSLRLSCAASGFNIKDTCIGWVRRAPGKGTELVAEICTDAGYTRYADSVKGRFTISADTSKNTAYLQMNSLRAEDTAVYYCAASESPSGFRYWGQGTTVTVSSGGGGSGGGGSDKTHTCPPCPAPEAAGGPSVFLFPPKPKDTLMISRTPEVTCVVVDVSHEDPEVKFNWYVDGVEVHNAKTKPREEQYNSTYRVVSVLTVLHQDWLNGKEYKCKVSNKALGAPIEKTISKAKGQPREPQVYTLPPSRDELTKNQVSLTCLVKGFYPSDIAVEWESNGQPENNYKTTPPVLDSDGSFFLYSKLTVDKSRWQQGNVFSCSVMHEALHNHYTQKSLSLSPGK" recorded_metric=t1/2 experimental_result=2.17
binder="bivalent 9B4 aVH-Fc (Fc fusion) EVQLVESGGGLVQPGGSLRLSCAASGFNIKDTCIGWVRRAPGKGTELVAEICQDIGYTRYADSVKGRFTISADTSKNTAYLQMNSLRAEDTAVYYCAAVEVAEYFEYWGQGTTVTVSSGGGGSGGGGSDKTHTCPPCPAPEAAGGPSVFLFPPKPKDTLMISRTPEVTCVVVDVSHEDPEVKFNWYVDGVEVHNAKTKPREEQYNSTYRVVSVLTVLHQDWLNGKEYKCKVSNKALGAPIEKTISKAKGQPREPQVYTLPPSRDELTKNQVSLTCLVKGFYPSDIAVEWESNGQPENNYKTTPPVLDSDGSFFLYSKLTVDKSRWQQGNVFSCSVMHEALHNHYTQKSLSLSPGK" recorded_metric=t1/2 experimental_result=1.02

Field: next binder
For reference, reported t1/2 for bivalent P11E9 aVH-Fc (Fc fusion) EVQLVESGGGLVQPGGSLRLSCAASGFNIKDTCIGWVRRAPGKGTELVAEICHDIGYTRYADSVKGRFTISADTSKNTAYLQMNSLRAEDTAVYYCAAEEHVASFEYWGQGTTVTVSSGGGGSGGGGSDKTHTCPPCPAPEAAGGPSVFLFPPKPKDTLMISRTPEVTCVVVDVSHEDPEVKFNWYVDGVEVHNAKTKPREEQYNSTYRVVSVLTVLHQDWLNGKEYKCKVSNKALGAPIEKTISKAKGQPREPQVYTLPPSRDELTKNQVSLTCLVKGFYPSDIAVEWESNGQPENNYKTTPPVLDSDGSFFLYSKLTVDKSRWQQGNVFSCSVMHEALHNHYTQKSLSLSPGK stands at 8.16
